# System: Wolbachia pipientis
# ASSAY_PROTOCOL: Anti-Wolbachia Cell-Based Screen
# Assay type: functional
# Parameters: scale not given: in the data most compounds retested in dose-response had high values
# ASSAY_SETUP: 5 µM
In all, about 48,000 compounds went through this assay and about 13,000 (27%) showed an effect of 50% or more. This is one part of the list.
Please respond with reported Percent Effect for every item in the list.
Number first, unit second: that is the form wanted.

For orientation, consider the following solved cases.
Cc1ccc(CN(CCCN2CCOCC2)Cc2cnn(C)c2)o1.O=C(O)CC(O)(CC(=O)O)C(=O)O; 97.82%
O=C1CC(c2ncc(-c3ccc4c(c3)OCCO4)[nH]2)CN1C1CC1 (stereo not drawn); -4.884%
O=C(NC1CC1)C1CCc2nnc(C3CC3)n21 (stereo not drawn); 105.6%
CN(C)[C@@H]1CCN(C(=O)c2ccco2)[C@H]1Cc1cnn(C)c1.O=C(O)C(F)(F)F; -8.002%
Cc1cnc(N2CCCC(c3ccccc3)C2)nc1-c1ncnn1C (stereo not drawn); -17.16%

# batch: return Percent Effect for each of the 6 compounds below
1. CC/N=c1\nc(NCC)nc2n1C(O)(Nc1cc(C)ccc1C)CS2 (stereo not drawn)
2. CN(CC1CCCCC1)C(=O)c1cn(C)nc1-c1cccnc1
3. CN(C)CCCN(Cc1cnn(C)c1)Cc1ccco1.O=C(O)CC(O)(CC(=O)O)C(=O)O
4. O=C(CN1C(=O)CCNC1=O)N1CCOC(c2ccc(F)cc2)C1 (stereo not drawn)
5. CNC(=O)C(C)(C)N1CCC[C@H]1C(=O)NC1CC1
6. Cn1cc(C(=O)NC2CCCC2)c(-c2cccnc2)n1

Result:
1. 165.1%
2. 20.64%
3. 115.2%
4. 13.31%
5. 8.345%
6. 1.647%

Record Percent Effect per entry; entries follow.
1. O=C1OCCN1Cc1cccc(F)c1C(F)(F)F
2. CS(=O)(=O)N1CCO[C@@H]2CN(C(=O)N3CCOCC3)CC[C@@H]2C1
3. O=C(NC1CC1)C1CCc2nnc(-c3cccnc3)n21 (stereo not drawn)

Result:
1: -13.53%; 2: 93.86%; 3: 102.7%
